B1: glmS ribozyme (parent)
chain: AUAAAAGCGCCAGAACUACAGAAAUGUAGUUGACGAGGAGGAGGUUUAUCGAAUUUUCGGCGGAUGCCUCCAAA

- Variants of: B1
- ASSAY_NOTES: self-cleavage kobs at 640 uM GlcN6P; higher = faster cleavage; RNA array
- TEST_CONTEXT: with glucosamine-6-phosphate
Fewer inactive variants are shown than the library holds.
RESULT_TYPE: self-cleavage kobs at 640 uM GlcN6P

List self-cleavage kobs at 640 uM GlcN6P for every entry below, keeping the order given.
1. AUAAAUGCGCAAGAACUACAGAAAUGUAGUUGACGAGGAGGAGGUUUAUCGAAUUUUCGGCGGAUGCCUCCAAA [A6U C11A]
2. AUAAAAGCACCAGAACUACAGAAAUGUAGUUGACGAGGAGGAGGUUCAUCGAAUUUUCGGCGGAUGCCUCCAAA [G9A U47C]
3. AUAAAAGAGCCAGAACUACAGAAAUGUAGUUGACGAGGAGGAGGUUUAUCGAAUUUUCCGCGGAUGCCUCCAAA [C8A G59C]
4. AUAAAAGCACCAGAACUACAGAAAUGUAGUUGACGAAGAGGAGGUUUAUCGAAUUGUCGGCGGAUGCCUCCAAA [G9A G37A U56G]

["< 1e-05 s⁻¹", "< 1e-05 s⁻¹", "< 1e-05 s⁻¹", "< 1e-05 s⁻¹"]
